- System: Mus musculus
- METHOD: Compound was evaluated for lethal dose (pLD50 = log1/LD50 in mol/kg.)
- Type: toxicity, organism-based
- ASSAY_CONTEXT: in vivo
Please provide measured pLD50 for the entries that follow.
Lab note: jot down the number only; don't add units.

Reported pLD50 ( CCCCN(CCCC)CC(=O)NCc1ccccc1.Cl ) = 3.93

Reported pLD50 ( CCN(CC)CC(=O)NCc1ccccc1-c1ccccc1.Cl ) = 3.89

Reported pLD50 ( CCCN(CCC)CC(=O)NCc1ccccc1.Cl ) = 3.59

Reported pLD50 ( CCN(CC)CC(=O)NC1CCc2ccccc21.Cl (centres undefined) ) = 3.62

Reported pLD50 ( O=C(CN1CCCC1)NCc1ccccc1 ) = 3.44

Reported pLD50 ( Cl.O=C(CN1CCCCC1)NCc1ccccc1 ) = 3.61

Reported pLD50 ( CN(C)CC(=O)NCc1ccccc1.Cl ) = 3.13

Reported pLD50 ( CCN(CC)CC(=O)NC1c2ccccc2CCc2ccccc21.Cl ) = 3.86

Reported pLD50 ( CCN(CC)CC(=O)NCc1ccccc1.Cl ) = 3.42

Reported pLD50 ( CCN(CC)CC(=O)NC1CC(c2ccccc2)c2ccccc21.Cl (centres undefined) ) = 3.78

Reported pLD50 ( CCCN(CCC)CC(=O)NC1CCc2ccccc21.Cl (centres undefined) ) = 3.84

Reported pLD50 ( CCN(CC)CC(=O)NC(c1ccccc1)c1ccccc1.Cl ) = 3.67

Reported pLD50 ( Cl.O=C(CN1CCOCC1)NCc1ccccc1 ) = 2.77

Reported pLD50 ( CCN(CC)CC(=O)NC1c2ccccc2-c2ccccc21.Cl ) = 3.83

###

- METHOD: Intravenous lethal dose of the compound
- Type: ADME, organism-based
- ASSAY_CONTEXT: mouse, in vivo
Rule: LD50 below 300 µmol/kg gives 1, anything at or above gives 0.

Query: In the record for CCN(CC)CC(=O)NC1c2ccccc2CCc2ccccc21.Cl , is LD50 less than 300 µmol/kg?
Response: 1

Query: In the record for Cl.O=C(CN1CCOCC1)NCc1ccccc1 , is LD50 less than 300 µmol/kg?
Response: 0

Query: In the record for Cl.O=C(CN1CCCCC1)NCc1ccccc1 , is LD50 less than 300 µmol/kg?
Response: 1

Query: In the record for CCCCN(CCCC)CC(=O)NCc1ccccc1.Cl , is LD50 less than 300 µmol/kg?
Response: 1

Query: In the record for O=C(CN1CCCC1)NCc1ccccc1 , is LD50 less than 300 µmol/kg?
Response: 0

Query: In the record for CN(C)CC(=O)NCc1ccccc1.Cl , is LD50 less than 300 µmol/kg?
Response: 0

Query: In the record for CCN(CC)CCOC(=O)c1ccc(N)cc1.Cl [PROCAINE HYDROCHLORIDE] , is LD50 less than 300 µmol/kg?
Response: 1

Query: In the record for CCCN(CCC)CC(=O)NCc1ccccc1.Cl , is LD50 less than 300 µmol/kg?
Response: 1

Query: In the record for CCN(CC)CC(=O)NCc1ccccc1-c1ccccc1.Cl , is LD50 less than 300 µmol/kg?
Response: 1

Query: In the record for CCN(CC)CC(=O)NC1c2ccccc2-c2ccccc21.Cl , is LD50 less than 300 µmol/kg?
Response: 1

Query: In the record for CCN(CC)CC(=O)NC1CC(c2ccccc2)c2ccccc21.Cl (stereo not given) , is LD50 less than 300 µmol/kg?
Response: 1

Query: In the record for CCN(CC)CC(=O)NC(c1ccccc1)c1ccccc1.Cl , is LD50 less than 300 µmol/kg?
Response: 1

Query: In the record for CCN(CC)CC(=O)NCc1ccccc1.Cl , is LD50 less than 300 µmol/kg?
Response: 0

Query: In the record for CCN(CC)CC(=O)NC1CCc2ccccc21.Cl (stereo not given) , is LD50 less than 300 µmol/kg?
Response: 1

Query: In the record for CCCN(CCC)CC(=O)NC1CCc2ccccc21.Cl (stereo not given) , is LD50 less than 300 µmol/kg?
Response: 1

###

Please provide measured logP for the entries that follow.
- METHOD: Partition coefficient (logP) (cyclohexane)
- Format: physicochemical
- ASSAY_CONTEXT: cyclohexane/water
Lab note: jot down the number only; don't add units.

Reported logP ( CCN(CC)CC(=O)NC1c2ccccc2-c2ccccc21.Cl ) = 3.067

Reported logP ( CCN(CC)CC(=O)NC1CC(c2ccccc2)c2ccccc21.Cl (configuration not stated) ) = 4.153

Reported logP ( CCCN(CCC)CC(=O)NC1c2ccccc2-c2ccccc21.Cl ) = 4.44

Reported logP ( CCN(CC)CC(=O)NC1CCc2ccccc21.Cl (configuration not stated) ) = 1.645

Reported logP ( CCN(CC)CC(=O)NC(c1ccccc1)c1ccccc1.Cl ) = 3.2

Reported logP ( O=C(CN1CCCC1)NCc1ccccc1 ) = 0.156

Reported logP ( CN(C)CC(=O)NCc1ccccc1.Cl ) = -0.453

###

- METHOD: Compound was evaluated for the apparent partition coefficient at pH 7.4
- Assay type: physicochemical
- ASSAY_CONTEXT: octanol/water
READOUT_LABEL: logD
Lab note: jot down the number only; don't add units.

Reported logD ( Cl.O=C(CN1CCCCC1)NCc1ccccc1 ) = 1.78

Reported logD ( CCN(CC)CC(=O)NC1CCc2ccccc21.Cl (stereo not drawn) ) = 1.88

Reported logD ( CCCN(CCC)CC(=O)NC1c2ccccc2-c2ccccc21.Cl ) = 4.37

Reported logD ( CN(C)CC(=O)NCc1ccccc1.Cl ) = 0.681

Reported logD ( CCN(CC)CC(=O)NC1c2ccccc2-c2ccccc21.Cl ) = 2.96

Reported logD ( CCN(CC)CC(=O)NCc1ccccc1.Cl ) = 1.39

Reported logD ( Cl.O=C(CN1CCOCC1)NCc1ccccc1 ) = 0.67

Reported logD ( O=C(CN1CCCC1)NCc1ccccc1 ) = 0.769

###

Please provide measured pAD for the entries that follow.
- Test system: Oryctolagus cuniculus
- METHOD: Compound was evaluated for anesthetic dose (pAD = log 1/AD; AD = anesthetic dose)

Reported pAD ( CCCN(CCC)CC(=O)NCc1ccccc1.Cl ) = 1.75

Reported pAD ( CCN(CC)CC(=O)NC1c2ccccc2-c2ccccc21.Cl ) = 1.82

Reported pAD ( CCN(CC)CC(=O)NCc1ccccc1-c1ccccc1.Cl ) = 1.82

Reported pAD ( CCN(CC)CC(=O)NCc1ccccc1.Cl ) = 0.93
